- System: Dog platelets (aggregation induced by U46619+adrenaline)
- TEST NAME: Platelet aggregation in dogs (U46619 + adrenaline, PRP)
- Assay type: cell-based
- CONDITIONS: Canis lupus familiaris, adrenaline 10 μM then U46619 1.2 μM, 3 min preincubation, 37° C., read-out: IC50 (50% inhibition of the aggregation responses to U46619+adrenaline)
pIC50: −log10 of the molar value. Counter-ions that a name gives are not always drawn.
Use YES when the recorded pIC50 is no lower than 7; use NO when it is lower.

COMPOUND: O=C(O)CC/C=C\CC1(CCNS(=O)(=O)c2ccc(Cl)cc2)CCCC1 [Example 3, sodium salt]
SYSTEM TESTED: Dog platelets (aggregation induced by U46619+adrenaline)
LABEL: YES
--
COMPOUND: Cc1ccc(S(=O)(=O)NCCC2(C/C=C\CCCC(=O)O)CCCCC2)cc1 [Example 4, sodium salt]
SYSTEM TESTED: Dog platelets (aggregation induced by U46619+adrenaline)
LABEL: NO
